Experiment: Ratio of drug level in brain to plasma in rat at 3 mg/kg, po
Format: ADME, organism-based
Parameters: dose 3 mg/kg, route oral
Conditions: brain and plasma, read-out: BPR
attribute_measured: Kp

For the molecule O[C@@H](CNc1cc(-c2ccc(C(F)(F)F)c(Cl)c2)ncn1)c1ccccc1 , what Kp is on record? 1

---

Target: Fatty-acid amide hydrolase 1 (Rattus norvegicus, UniProt P97612)
Sequence (P97612 whole entry): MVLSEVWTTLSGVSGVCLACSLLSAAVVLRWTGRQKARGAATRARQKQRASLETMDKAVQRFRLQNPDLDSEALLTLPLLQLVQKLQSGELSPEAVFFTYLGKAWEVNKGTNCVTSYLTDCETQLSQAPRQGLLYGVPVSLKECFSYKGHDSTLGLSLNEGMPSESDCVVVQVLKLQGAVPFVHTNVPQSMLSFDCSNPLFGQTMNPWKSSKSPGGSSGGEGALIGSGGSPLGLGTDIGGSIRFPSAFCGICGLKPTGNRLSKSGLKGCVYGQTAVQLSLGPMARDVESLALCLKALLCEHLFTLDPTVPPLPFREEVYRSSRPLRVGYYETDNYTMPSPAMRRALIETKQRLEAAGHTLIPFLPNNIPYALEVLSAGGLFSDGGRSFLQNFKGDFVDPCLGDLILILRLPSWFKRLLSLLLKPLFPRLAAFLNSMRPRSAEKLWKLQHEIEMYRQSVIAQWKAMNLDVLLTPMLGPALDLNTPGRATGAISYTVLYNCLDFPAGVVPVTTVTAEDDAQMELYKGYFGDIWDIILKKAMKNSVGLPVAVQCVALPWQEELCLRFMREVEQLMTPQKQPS
Entries annotated with measured IC50
Give the value in µM but do not write µM after it.

Use these answered entries as a reference point.
N#Cc1cccc(C(O)CNc2cc(-c3ccc(C(F)(F)F)c(Cl)c3)ncn2)c1 (racemic) | 0.026
CSc1ccc(C(O)CNc2cc(-c3ccc(C(F)(F)F)c(Cl)c3)ncn2)cc1 (racemic) | 0.034

Record request: IC50 value, item OC(CNc1cc(-c2ccc(C(F)(F)F)c(Cl)c2)ncn1)c1cccc(C(F)(F)F)c1 (racemic) 0.023

Quick one: OC(CNc1cc(-c2ccc(C(F)(F)F)c(Cl)c2)ncn1)c1ccc(Cl)c(F)c1 (racemic) 0.019
